B1: Membrane-associated guanylate kinase, WW and PDZ domain-containing protein 2, residues 601 to 682; numbered along this chain, Q86UL8 (parent)
chain: AELMTLTIVKGAQGFGFTIADSPTGQRVKQILDIQGCPGLCEGDLIVEINQQNVQNLSHTEVVDILKDCPIGSETSLIIHRG

Variants of: B1
Test: abundance fitness (aPCA) (normalised: wild type 0, dead -1); higher = more abundant; growth selection in yeast, the domain comes from the species named
Conditions: Homo sapiens
Decide using abundance fitness: a value greater than or equal to -0.05 is Criterion met, a smaller one is Criterion not met.

Check out these entries, answers already filled in.
>>> class_label("Q52N")
"Criterion met"
>>> class_label("C41T")
"Criterion met"
>>> class_label("Q26E")
"Criterion met"
>>> class_label("S76P")
"Criterion met"
>>> class_label("I19L")
"Criterion met"

Is reported abundance fitness greater than or equal to -0.05 here: C37M
Criterion not met

Is reported abundance fitness greater than or equal to -0.05 here: H59K
Criterion not met

Is reported abundance fitness greater than or equal to -0.05 here: G36A
Criterion not met

Is reported abundance fitness greater than or equal to -0.05 here: Q26N
Criterion not met
